Each entry below lists one item and its recorded Dmax value.
# target system: SMARCA2 (Homo sapiens, UniProt P51531)
# Sequence (P51531 whole entry): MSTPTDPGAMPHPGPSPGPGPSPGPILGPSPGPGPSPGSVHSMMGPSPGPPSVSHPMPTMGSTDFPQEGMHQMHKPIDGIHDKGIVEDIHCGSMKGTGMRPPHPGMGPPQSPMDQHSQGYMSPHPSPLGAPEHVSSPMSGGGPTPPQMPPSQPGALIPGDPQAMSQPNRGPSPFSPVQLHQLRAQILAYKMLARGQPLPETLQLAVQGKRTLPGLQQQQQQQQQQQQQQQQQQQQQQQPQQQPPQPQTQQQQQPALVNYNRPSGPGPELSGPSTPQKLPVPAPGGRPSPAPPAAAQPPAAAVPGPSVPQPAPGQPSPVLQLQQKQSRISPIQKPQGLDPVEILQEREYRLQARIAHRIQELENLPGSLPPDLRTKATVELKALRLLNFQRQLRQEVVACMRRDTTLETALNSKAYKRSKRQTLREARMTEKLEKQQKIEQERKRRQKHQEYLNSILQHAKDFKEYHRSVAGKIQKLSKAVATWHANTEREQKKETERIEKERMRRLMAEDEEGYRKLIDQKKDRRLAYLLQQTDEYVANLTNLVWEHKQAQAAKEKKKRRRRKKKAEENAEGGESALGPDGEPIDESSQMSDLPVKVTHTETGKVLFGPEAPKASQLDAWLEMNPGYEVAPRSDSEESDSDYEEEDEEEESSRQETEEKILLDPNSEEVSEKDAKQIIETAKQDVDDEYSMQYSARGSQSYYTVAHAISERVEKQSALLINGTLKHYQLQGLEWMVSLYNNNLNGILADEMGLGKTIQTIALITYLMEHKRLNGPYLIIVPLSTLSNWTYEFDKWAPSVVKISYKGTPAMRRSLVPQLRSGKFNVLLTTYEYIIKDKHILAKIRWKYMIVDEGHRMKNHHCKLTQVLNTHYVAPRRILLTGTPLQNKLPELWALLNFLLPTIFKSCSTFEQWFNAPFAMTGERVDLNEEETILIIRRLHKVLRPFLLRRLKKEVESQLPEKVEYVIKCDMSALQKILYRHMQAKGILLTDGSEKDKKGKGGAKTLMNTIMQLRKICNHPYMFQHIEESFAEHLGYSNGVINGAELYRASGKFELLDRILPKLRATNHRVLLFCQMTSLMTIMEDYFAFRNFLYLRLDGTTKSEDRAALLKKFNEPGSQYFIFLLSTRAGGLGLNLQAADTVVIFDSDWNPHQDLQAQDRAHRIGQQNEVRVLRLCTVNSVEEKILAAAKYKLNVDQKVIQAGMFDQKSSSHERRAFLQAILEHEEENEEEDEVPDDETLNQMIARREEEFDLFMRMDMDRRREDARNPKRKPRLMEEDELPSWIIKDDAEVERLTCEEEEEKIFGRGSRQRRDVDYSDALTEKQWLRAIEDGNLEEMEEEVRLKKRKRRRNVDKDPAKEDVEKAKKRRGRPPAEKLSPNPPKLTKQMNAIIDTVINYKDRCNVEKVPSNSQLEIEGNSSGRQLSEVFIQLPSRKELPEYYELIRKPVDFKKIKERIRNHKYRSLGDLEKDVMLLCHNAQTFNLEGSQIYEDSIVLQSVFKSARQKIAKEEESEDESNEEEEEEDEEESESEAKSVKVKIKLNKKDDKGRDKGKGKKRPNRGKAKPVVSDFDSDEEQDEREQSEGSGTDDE
# test details: MSD SMARCA2 degradation in A549 cell line
# Assay type: cell-based
# stated conditions: A549, A549 cells, 24 h
# Experimental: Cells were seeded into 96-well plates (A549 cells: 2×10^4 cells/well/100 ul media) abd incubated overnight. The next day, 200 nl compound were added into the intermediate plate with Echo (Labcyte 550) from source plate containing a 3-fold serial dilution from top concentration of 1 mM. […] The MSD plate was washed three times with 150 ul/well of TBST and 150 ul/well of 2×MSD reading buffer diluted from 4× (MSD, R92TC-2) with water was added. Lastly, the MSD instrument was read. […]

Cc1ncsc1-c1ccc(CNC(=O)[C@@H]2C[C@@H](O)CN2C(=O)[C@@H](NC(=O)[C@H]2CC[C@@H](CCCCCN3CCC(Cn4cc(-c5cc(-c6ccccc6O)nnc5N)cn4)CC3)CC2)C(C)(C)C)cc1; 70 to 90%
Cc1ncsc1-c1ccc(CNC(=O)[C@@H]2C[C@@H](O)CN2C(=O)[C@@H](NC(=O)CNCc2cccc(C#Cc3cc(NC(=O)Nc4cc(F)ncc4CO)ccn3)c2)C(C)(C)C)cc1; < 50%
Cc1ncsc1-c1ccc(CNC(=O)[C@@H]2C[C@@H](O)CN2C(=O)[C@@H](NC(=O)[C@H]2CC3(C2)C[C@H](N2CCC(c4cnc(N5C6CCC5CN(c5cc(-c7ccccc7O)nnc5N)C6)nc4)CC2)C3)C(C)(C)C)cc1 (stereo partly shown); > 90%

Entry under test: `Cc1ncsc1-c1ccc(CNC(=O)[C@@H]2C[C@@H](O)CN2C(=O)[C@@H](NC(=O)CCCN2CCN(Cc3ccc(-c4cc(-c5ccccc5O)nnc4N)cc3)CC2)C(C)(C)C)cc1` . Its Dmax was < 50%

Per the records, this molecule ( `Cc1ncsc1-c1ccc(CNC(=O)[C@@H]2C[C@@H](O)CN2C(=O)[C@@H](NC(=O)[C@H]2CC[C@H](CN3CCC(c4cnc(N5C6CCC5CN(c5cc(-c7ccccc7O)nnc5N)C6)nc4)CC3)CC2)C(C)(C)C)cc1` ) has Dmax equal to > 90%

GET /value?item= `Cc1ncsc1-c1ccc(CNC(=O)[C@@H]2C[C@@H](O)CN2C(=O)[C@@H](NC(=O)[C@H]2CC[C@@H](N3CC(c4cnc(N5C6CCC5CN(c5cc(-c7ccccc7O)nnc5N)C6)nc4)C3)CC2)C(C)(C)C)cc1` &field=Dmax returns > 90%

----------
# target system: UniProtKB P51531
# test details: MSD SMARCA2 degradation in A549 cell line
# Format: cell-based
# stated conditions: A549 cells, 24 h, read-out: SMARCA2 MSD A549 degradation 24 h: Average external-Abs DC50
endpoint label: DC50

Consider the reported DC50 for these compounds:
Cc1ncsc1-c1ccc(CNC(=O)[C@@H]2C[C@@H](O)CN2C(=O)[C@@H](NC(=O)[C@H]2CC[C@H](N(C)Cc3cnc(N4C5CCC4CN(c4cc(-c6ccccc6O)nnc4N)C5)nc3)CC2)C(C)(C)C)cc1; 501 to 1000 nM
Cc1ncsc1-c1ccc(CNC(=O)[C@@H]2C[C@@H](O)CN2C(=O)[C@@H](NC(=O)CN2CCC(c3ccc(C#Cc4cc(NC(=O)Nc5cc(F)ncc5CO)ccn4)cc3)CC2)C(C)(C)C)cc1; > 1000 nM
Cc1ncsc1-c1ccc(CNC(=O)[C@@H]2C[C@@H](O)CN2C(=O)[C@@H](NC(=O)C2CCC(N3CCC(n4cc(-c5cc(-c6ccccc6O)nnc5N)cn4)CC3)CC2)C(C)(C)C)cc1 (stereo partly shown); 100 to 500 nM
Cc1ncsc1-c1ccc(CNC(=O)[C@@H]2C[C@@H](O)CN2C(=O)[C@@H](NC(=O)[C@H]2CC[C@H](Cc3cnc(N4C5CCC4CN(c4cc(-c6ccccc6O)nnc4N)C5)nc3)CC2)C(C)(C)C)cc1; < 100 nM
CC(C)(C)[C@H](NC(=O)C1(F)CC1)C(=O)N1C[C@H](O)C[C@H]1C(=O)NCc1ccc(-c2scnc2-c2ccc3cn[nH]c3c2)cc1OCCc1ccc(CN2CCN(c3cc(-c4ccccc4O)nnc3N)CC2)cc1; 100 to 500 nM

So for `Cc1cc(-c2scnc2C)ccc1CNC(=O)[C@@H]1C[C@@H](O)CN1C(=O)[C@@H](NC(=O)CN1CCC(c2cnc(N3C4CCC3CN(c3cc(-c5ccccc5O)nnc3N)C4)nc2)CC1)C(C)(C)C` , the logged DC50 turned out to be 100 to 500 nM

DC50 reading for Cc1ncsc1-c1ccc(CNC(=O)[C@@H]2C[C@@H](O)CN2C(=O)[C@@H](NC(=O)[C@H]2CC3(C2)C[C@H](N2CCC(n4cc(-c5cc(-c6ccccc6O)nnc5N)cn4)CC2)C3)C(C)(C)C)cc1 (stereo partly shown) [I-390] : 100 to 500 nM

Sample `Cc1ncsc1-c1ccc(CNC(=O)[C@@H]2C[C@@H](O)CN2C(=O)[C@@H](NC(=O)[C@H]2CC[C@@H](Cc3ccc(-c4cnc(N5C6CCC5CN(c5cc(-c7ccccc7O)nnc5N)C6)nc4)cc3)CC2)C(C)(C)C)cc1` ; DC50 observed: 100 to 500 nM

Sure, the documented DC50 for `Cc1ncsc1-c1ccc(CNC(=O)[C@@H]2C[C@@H](O)CN2C(=O)[C@@H](NC(=O)C23CCC(CN4CCC(n5cc(-c6cc(-c7ccccc7O)nnc6N)cn5)CC4)(CC2)CC3)C(C)(C)C)cc1` is 100 to 500 nM

DC50 in this record for Cc1ncsc1-c1ccc(CNC(=O)[C@@H]2C[C@@H](O)CN2C(=O)[C@@H](NC(=O)C2CCN(Cc3cnc(N4C5CCC4CN(c4cc(-c6ccccc6O)nnc4N)C5)nc3)CC2)C(C)(C)C)cc1 [I-338] : 100 to 500 nM

----------
# target system: SMARCA2 (Homo sapiens)
# test details: MSD SMARCA2 degradation in A549 cell line
# Assay type: cell-based
# stated conditions: A549 cells, 24 h, read-out: SMARCA2 MSD A549 degradation 24 h: Average external-Abs DC50
endpoint label: DC50

Below are worked cases with known answers.
Cc1ncsc1-c1ccc(CNC(=O)[C@@H]2C[C@@H](O)CN2C(=O)[C@@H](NC(=O)[C@H]2CC[C@@H](N3CC(c4cnc(N5C6CCC5CN(c5cc(-c7ccccc7O)nnc5N)C6)nc4)C3)CC2)C(C)(C)C)cc1 [I-436]; 100 to 500 nM
Cc1ncsc1-c1ccc(CNC(=O)[C@@H]2C[C@@H](O)CN2C(=O)[C@@H](NC(=O)[C@@H]2CCN(Cc3cnc(N4C5CCC4CN(c4cc(-c6ccccc6O)nnc4N)C5)nc3)C2)C(C)(C)C)cc1 [I-386]; 501 to 1000 nM
Cc1ncsc1-c1ccc(CNC(=O)[C@@H]2C[C@@H](O)CN2C(=O)[C@@H](NC(=O)N[C@H]2CC[C@@H](c3cnc(N4C5CCC4CN(c4cc(-c6ccccc6O)nnc4N)C5)nc3)CC2)C(C)(C)C)cc1 [I-334]; 501 to 1000 nM
Cc1ncsc1-c1ccc(CNC(=O)[C@@H]2C[C@@H](O)CN2C(=O)[C@@H](NC(=O)C23CCC(CN(C)Cc4cnc(N5C6CCC5CN(c5cc(-c7ccccc7O)nnc5N)C6)nc4)(CC2)CC3)C(C)(C)C)cc1 [I-429]; 100 to 500 nM
Cc1ncsc1-c1ccc(CNC(=O)[C@@H]2C[C@@H](O)CN2C(=O)[C@@H](NC(=O)[C@H]2CC[C@H](CCN3CCC(n4cc(-c5cc(-c6ccccc6O)nnc5N)cn4)CC3)CC2)C(C)(C)C)cc1 [I-399]; < 100 nM

Per the record, Cn1c(=O)n(C2CCC(=O)NC2=O)c2cccc(CCCOC3CCN(Cc4ccc(C#Cc5cc(NC(=O)Nc6cc(F)ncc6CO)ccn5)cc4)CC3)c21 (centres unmarked) [I-307] has DC50 of > 1000 nM

For record Cc1ncsc1-c1ccc(CNC(=O)[C@@H]2C[C@@H](O)CN2C(=O)[C@@H](NC(=O)C[C@H]2CC[C@H](c3nccc(N4C5CCC4CN(c4cc(-c6ccccc6O)nnc4N)C5)n3)CC2)C(C)(C)C)cc1 [I-364] the listed DC50 is 100 to 500 nM

What the record says about Cc1ncsc1-c1ccc(CNC(=O)[C@@H]2C[C@@H](O)CN2C(=O)[C@@H](NC(=O)CCCN2CCC(c3cnc(N4C5CCC4CN(c4cc(-c6ccccc6O)nnc4N)C5)nc3)CC2)C(C)(C)C)cc1 [I-382] : DC50 is > 1000 nM

Value of DC50 reported for the compound Cc1ncsc1-c1ccc(CNC(=O)[C@@H]2C[C@@H](O)CN2C(=O)[C@@H](NC(=O)c2ccc(CCCCCN3CCC(Cn4cc(-c5cc(-c6ccccc6O)nnc5N)cn4)CC3)cc2)C(C)(C)C)cc1 [I-505] is 100 to 500 nM

Lookup result for Cc1ncsc1-c1ccc(CNC(=O)[C@@H]2C[C@@H](O)CN2C(=O)[C@@H](NC(=O)[C@H]2C[C@@H](N3CCC(c4cnc(N5C6CCC5CN(c5cc(-c7ccccc7O)nnc5N)C6)nc4)CC3)C2)C(C)(C)C)cc1 [I-349] ; measured DC50: 100 to 500 nM

Measured DC50 of Cn1c(=O)n(C2CCC(=O)NC2=O)c2cccc(C3CCC(N4CCC(n5cc(-c6cc(-c7ccccc7O)nnc6N)cn5)CC4)CC3)c21 (centres unmarked) [I-321] : < 100 nM

Sure, the documented DC50 for CN(Cc1cccc(C#Cc2cc(NC(=O)Nc3cc(F)ncc3CO)ccn2)c1)C1CCN(Cc2cccc3c2n(C)c(=O)n3C2CCC(=O)NC2=O)CC1 (centres unmarked) [I-318] is > 1000 nM

Form: compound = Cc1ncsc1-c1ccc(CNC(=O)[C@@H]2C[C@@H](O)CN2C(=O)[C@@H](NC(=O)[C@H]2CC[C@H](N3CCC(N4CCC(n5cc(-c6cc(-c7ccccc7O)nnc6N)cn5)CC4)CC3)CC2)C(C)(C)C)cc1 [I-400] ; DC50 = 501 to 1000 nM

Reported DC50 for Nc1nnc(-c2ccccc2O)cc1-c1cnn(C2CCN(C3CCC(Nc4cccc5c4C(=O)N(C4CCC(=O)NC4=O)C5=O)CC3)CC2)c1 (centres unmarked) [I-322] was < 100 nM

Data point: Nc1nnc(-c2ccccc2O)cc1N1CC2CCC(C1)N2c1ncc(C2CCN(CCCCCCCCCCOc3ccc(Oc4ccc(N(Cc5ccccc5)C(=O)CCl)cc4)cc3)CC2)cn1 [I-533] ; DC50 = > 1000 nM

Entry Cc1ncsc1-c1ccc(CNC(=O)[C@@H]2C[C@@H](O)CN2C(=O)[C@@H](NC(=O)[C@H](C)N2CCC(c3cnc(N4C5CCC4CN(c4cc(-c6ccccc6O)nnc4N)C5)nc3)CC2)C(C)(C)C)cc1 [I-481] — recorded DC50 = > 1000 nM

Value of measured DC50 for the entry Nc1nnc(-c2ccccc2O)cc1N1CC2CCC(C1)N2c1ncc(C2CCN(CCCCCCCCCNC(=O)COc3ccc4c(c3)CCCN4C(=O)CCl)CC2)cn1 [I-525] : > 1000 nM

Lab note: measured DC50 of Nc1nnc(-c2ccccc2O)cc1-c1cnn(C2CCN(C3CCC(Nc4ccc5c(c4)C(=O)N(C4CCC(=O)NC4=O)C5=O)CC3)CC2)c1 (centres unmarked) [I-323] was < 100 nM

DC50 recorded for this compound, Cc1ncsc1-c1ccc(CNC(=O)[C@@H]2C[C@@H](O)CN2C(=O)[C@@H](NC(=O)[C@H]2CC[C@H](N3CCC(n4cc(-c5cc(-c6ccccc6O)nnc5N)cn4)CC3)CC2)C(C)(C)C)cc1 [I-361] , is 501 to 1000 nM

Looking up Cc1ncsc1-c1ccc(CNC(=O)[C@@H]2C[C@@H](O)CN2C(=O)[C@@H](NC(=O)[C@H]2CC3(C2)C[C@H](N2CCC(n4cc(-c5cc(-c6ccccc6O)nnc5N)cn4)CC2)C3)C(C)(C)C)cc1 (some centres unmarked) [I-389] , I see its DC50 listed as 100 to 500 nM
